# system name: Hexose transporter 1 (Plasmodium falciparum)
# experimental details: ST_JUDE_LEISH: Cytotoxicity at 2uM final concentration against transgenic Leishmania Mexicana promastigotes LmPfHT that are glucose transport deficient and complemented with the Plasmodium falciparum hexose transporter. Activity is measured by DNA content using SYBR green in vitro
# Format: functional

>  <compound>
CC(=NNC(S)=Nc1ccccc1Cl)c1ccccn1

>  <inhibition>
19.6%

$$$$
>  <compound>
Cc1c(CNCCCNc2nc3ccccc3[nH]2)sc(C(F)F)c1Br

>  <inhibition>
0.8%

$$$$
>  <compound>
CCn1c(-c2nonc2N)nc2c(-c3cccc(NC(=O)Nc4ccccc4Cl)c3)ncc(OCCCN)c21

>  <inhibition>
-1.1%

$$$$
>  <compound>
O=C(N[C@H]1CCCC[C@H]1C(=O)O)c1ccccc1

>  <inhibition>
1.61%

$$$$
>  <compound>
CC(ON1C(N)=NC(N)=NC1(C)C)c1ccccc1 (stereo not given)

>  <inhibition>
4.22%

$$$$
>  <compound>
COc1ccc(-c2nc(NC(=O)CS(=O)(=O)c3ccccc3)sc2C)cc1

>  <inhibition>
4.92%

$$$$
>  <compound>
CCCC[C@H](NC(=O)O[C@H](COc1ccc(OCc2ccccc2)cc1)C(C)(C)C)C(=O)C(=O)Nc1cc[nH]n1

>  <inhibition>
3.22%

$$$$
>  <compound>
CC(C)C(=O)NC(c1ccc(N(C)C)cc1)c1cc(Cl)c2cccnc2c1O (stereo not given)

>  <inhibition>
4.2%

$$$$
>  <compound>
COc1ccc(Nc2nccc(-c3ccc(NC(=O)c4cc5cc(F)ccc5[nH]4)cc3)n2)cc1

>  <inhibition>
0.09%

$$$$
>  <compound>
Cc1ccc(Cn2cnc(N3CC(C)NC(C)C3)cc2=O)cc1NC(=O)Nc1ccc(-c2ccccc2)cc1 (stereo not given)

>  <inhibition>
-0.46%

$$$$
